# measurement_target: Angiotensin Converting Enzyme (ACE) (Oryctolagus cuniculus, UniProt P12822)
# Construct: Lyophilized powder (1 g) of rabbit lungs (product of Pel-Freez Biologicals Company) was extracted; tissue Pel-Freez Biologicals Company; host or cells: rabbit lungs, lyophilized powder; 40,000 g supernatant of a phosphate buffer extract
# Sequence (P12822 34-1310): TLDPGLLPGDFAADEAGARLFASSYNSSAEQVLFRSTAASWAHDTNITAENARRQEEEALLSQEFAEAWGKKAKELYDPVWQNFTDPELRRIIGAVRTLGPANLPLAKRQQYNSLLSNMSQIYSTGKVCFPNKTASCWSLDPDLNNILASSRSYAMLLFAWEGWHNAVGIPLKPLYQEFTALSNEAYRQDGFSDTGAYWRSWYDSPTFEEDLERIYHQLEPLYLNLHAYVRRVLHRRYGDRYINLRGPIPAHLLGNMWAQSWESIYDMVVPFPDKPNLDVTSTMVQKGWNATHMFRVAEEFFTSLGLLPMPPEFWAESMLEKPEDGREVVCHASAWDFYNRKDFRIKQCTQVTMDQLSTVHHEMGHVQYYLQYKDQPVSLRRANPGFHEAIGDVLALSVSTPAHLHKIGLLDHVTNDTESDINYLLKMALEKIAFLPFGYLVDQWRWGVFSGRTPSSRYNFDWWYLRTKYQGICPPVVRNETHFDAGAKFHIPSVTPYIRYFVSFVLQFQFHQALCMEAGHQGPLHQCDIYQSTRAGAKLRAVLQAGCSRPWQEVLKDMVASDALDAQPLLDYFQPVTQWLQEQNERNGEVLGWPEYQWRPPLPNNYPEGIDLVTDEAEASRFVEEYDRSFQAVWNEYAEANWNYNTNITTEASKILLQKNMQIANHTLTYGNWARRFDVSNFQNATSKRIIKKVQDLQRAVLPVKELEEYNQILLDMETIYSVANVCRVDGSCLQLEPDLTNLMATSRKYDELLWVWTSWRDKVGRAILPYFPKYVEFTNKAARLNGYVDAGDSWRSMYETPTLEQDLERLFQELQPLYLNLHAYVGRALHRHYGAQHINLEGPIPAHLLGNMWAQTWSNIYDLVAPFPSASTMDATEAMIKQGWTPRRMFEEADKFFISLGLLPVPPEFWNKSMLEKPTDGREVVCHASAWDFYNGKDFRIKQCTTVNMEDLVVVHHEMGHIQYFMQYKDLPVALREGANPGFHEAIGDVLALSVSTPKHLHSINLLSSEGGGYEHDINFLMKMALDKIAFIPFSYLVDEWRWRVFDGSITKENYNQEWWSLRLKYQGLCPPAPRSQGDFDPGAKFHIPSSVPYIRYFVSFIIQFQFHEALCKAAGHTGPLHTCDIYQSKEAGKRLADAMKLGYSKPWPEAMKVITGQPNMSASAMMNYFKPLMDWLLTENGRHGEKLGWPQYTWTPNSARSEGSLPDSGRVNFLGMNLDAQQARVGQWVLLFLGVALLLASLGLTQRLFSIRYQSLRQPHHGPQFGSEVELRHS
# experiment_summary: ACE inhibitory activity after incubation in rat plasma (Method 2)
# Format: biochemical, rabbit
# settings: pre-incubated in rat plasma at 37° C. for 1 hour, dihydrochlorides, read-out: ACE inhibitory activity concentration (IC50)
Measured pIC50, listed per entry.
Please treat pIC50 as minus the base-10 logarithm of the molar concentration.

Worked cases, pIC50 given:
compound	measurement_target	test_value
CCCCCCC1CC(N[C@@H](CCCCN)C(=O)N2CCC[C@H]2C(=O)O)C(=O)O1 (single isomer, unassigned)	Angiotensin Converting Enzyme (ACE) (Oryctolagus cuniculus, UniProt P12822)	8.33
CCCCC1CC(N[C@@H](CCCCN)C(=O)N2CCC[C@H]2C(=O)O)C(=O)O1 (single isomer, unassigned)	Angiotensin Converting Enzyme (ACE) (Oryctolagus cuniculus, UniProt P12822)	8.24

Could you now consider this next compound?
**Q:** Suppose we examine the compound CCCCCC1CC(N[C@@H](CCCCN)C(=O)N2CCC[C@H]2C(=O)O)C(=O)O1 (single isomer, unassigned) ; what pIC50 value has been reported?
**A:** 8.40

Cited source: patent US4876359A
